Every entry's value here was drawn from patent US11613546B2.

# Test system: pLai RLuc reporter virus
# ASSAY_SUMMARY: HIV MT-4 serum shift antiviral reporter assay
# Type: cell-based
# EXPERIMENTAL_CONTEXT: Human immunodeficiency virus 1, 72 h, read-out: RLUC 50% HS (nM), HS/CCM: 50% human serum, 72 h, Renilla Glo
QUANTITY: log10(EC50) (log10 of the value in nM)

{"MOLECULE": "C[C@H]1CC[C@@H](CF)N2CN1C(=O)c1c(O)c(=O)c(C(=O)NCc3c(F)cc(F)cc3F)cn12 [Example C77]", "TARGET_DESC": "pLai RLuc reporter virus", "REPORTED": 2.47}
{"MOLECULE": "C[C@@H]1C[C@@H](F)[C@H](C)N2CN1n1cc(C(=O)NCc3ccc(F)cc3F)c(=O)c(O)c1C2=O [Example C53]", "TARGET_DESC": "pLai RLuc reporter virus", "REPORTED": 2.54}
{"MOLECULE": "C[C@H]1C=CC2(CCC2)N2CN1C(=O)c1c(O)c(=O)c(C(=O)NCc3c(F)cc(F)cc3F)cn12 [Example C104]", "TARGET_DESC": "pLai RLuc reporter virus", "REPORTED": 2.15}
{"MOLECULE": "C[C@@H]1C=CC(C)(C)N2CN1n1cc(C(=O)NCc3ccc(F)cc3F)c(=O)c(O)c1C2=O [Example C90]", "TARGET_DESC": "pLai RLuc reporter virus", "REPORTED": 1.96}
{"MOLECULE": "C[C@H]1C=CCN2CN1C(=O)c1c(O)c(=O)c(C(=O)NCc3c(F)cc(F)cc3F)cn12 [Example C5]", "TARGET_DESC": "pLai RLuc reporter virus", "REPORTED": 1.61}
{"MOLECULE": "C[C@H]1C=C[C@H](C)N2CN1C(=O)c1c(O)c(=O)c(C(=O)NCc3ccc(F)cc3F)cn12 [Example C30]", "TARGET_DESC": "pLai RLuc reporter virus", "REPORTED": 1.46}
{"MOLECULE": "CO[C@H]1C[C@@H](C)N2CN(C[C@H]1OC)C(=O)c1c(O)c(=O)c(C(=O)NCc3ccc(F)cc3F)cn12 [Example C39]", "TARGET_DESC": "pLai RLuc reporter virus", "REPORTED": 0.67}

###

# System: HIV-1 (IIIB)
# ASSAY_SUMMARY: Antiviral assay in MT-4 cells
# Assay type: cell-based
# EXPERIMENTAL_CONTEXT: HIV-1 IIIB infected MT-4 cells, 5 days, Cell Titer Glo; read-out: MT4 EC50
pEC50: −log10 of the molar value.
QUANTITY: pEC50

{"COMPOUND": "C[C@H]1CCC(C)(C)N2CN1n1cc(C(=O)NCc3ccc(F)cc3F)c(=O)c(O)c1C2=O", "TARGET_DESC": "HIV-1 (IIIB)", "REPORTED": 7.60}
{"COMPOUND": "C[C@@H]1C(F)=C[C@H](C)N2CN1n1cc(C(=O)NCc3c(F)cc(F)cc3F)c(=O)c(O)c1C2=O", "TARGET_DESC": "HIV-1 (IIIB)", "REPORTED": 8.80}
{"COMPOUND": "CO[C@@H]1C=C[C@H](C)N2CN1n1cc(C(=O)NCc3c(F)cc(F)cc3F)c(=O)c(O)c1C2=O", "TARGET_DESC": "HIV-1 (IIIB)", "REPORTED": 8.80}
{"COMPOUND": "C[C@@H]1CCC[C@H](C)N2CN1n1cc(C(=O)NCc3c(F)cc(F)cc3F)c(=O)c(O)c1C2=O [Example C14]", "TARGET_DESC": "HIV-1 (IIIB)", "REPORTED": 8.70}
{"COMPOUND": "O=C(NCc1c(F)cc(F)cc1F)c1cn2c(c(O)c1=O)C(=O)N1CCCCN2C1 [Example C108]", "TARGET_DESC": "HIV-1 (IIIB)", "REPORTED": 8.48}
{"COMPOUND": "C[C@H]1/C=C\\C[C@H](C)N2CN1C(=O)c1c(O)c(=O)c(C(=O)NCc3c(F)cc(F)cc3F)cn12 [Example C19]", "TARGET_DESC": "HIV-1 (IIIB)", "REPORTED": 8.96}
{"COMPOUND": "C[C@@H]1CCCCN2CN1n1cc(C(=O)NCc3ccc(F)cc3F)c(=O)c(O)c1C2=O", "TARGET_DESC": "HIV-1 (IIIB)", "REPORTED": 8.72}
